# Tested on: NCI-H23 lung
# measurement protocol: NCI-60 one-dose screen, 48 h (100 = growth as untreated, 0 = no growth, -100 = all killed)
# condition label: 10 µM unless noted
The panel holds about 83,000 compounds, 20% with a hit somewhere; the sample as a whole holds those more often.
readout name: growth (%)
One number for each entry, in %.

Answered cases to consult:
compound=CN(C)c1cccc2[nH]c(-c3[nH]ncc3Nc3ccnc(N)n3)nc12 numeric_result=-45.1
compound="Nc1c2c(nc3ccc(Br)cc13)CC(c1ccccc1)CC2=O (configuration not stated)" numeric_result=37.7

Count: 5. Required value per item: growth.
1. O=[N+]([O-])c1ccc(N/N=C(\C(=N/Nc2ccc([N+](=O)[O-])cc2[N+](=O)[O-])c2ccccc2)c2ccccc2)c([N+](=O)[O-])c1
2. O=S(=O)(NCCNc1cc(-c2cn(-c3ccccc3)nc2-c2cccc(O)c2)ccn1)c1cccc(F)c1
3. c1cc(N2CCCC2)c2nc(-c3[nH]ncc3Nc3ncnc4[nH]ccc34)[nH]c2c1
4. OCC1OC(n2cnc3c(Cl)ncnc32)CC1O (configuration not stated)
5. COc1cccc(-c2nn(-c3ccccc3)cc2-c2ccnc(NCCCO)c2)c1

output:
104
45.8
-45.3
118
51.5

Origin of values: PubChem BioAssay (NCI)
